Values were extracted from ChEMBL document CHEMBL3734749.

Target: Fanconi anemia group F protein/Transcription factor HES-1 (Homo sapiens, UniProt Q14469+Q9NPI8)
Sequence (Q9NPI8 whole entry, the tested form may be a part): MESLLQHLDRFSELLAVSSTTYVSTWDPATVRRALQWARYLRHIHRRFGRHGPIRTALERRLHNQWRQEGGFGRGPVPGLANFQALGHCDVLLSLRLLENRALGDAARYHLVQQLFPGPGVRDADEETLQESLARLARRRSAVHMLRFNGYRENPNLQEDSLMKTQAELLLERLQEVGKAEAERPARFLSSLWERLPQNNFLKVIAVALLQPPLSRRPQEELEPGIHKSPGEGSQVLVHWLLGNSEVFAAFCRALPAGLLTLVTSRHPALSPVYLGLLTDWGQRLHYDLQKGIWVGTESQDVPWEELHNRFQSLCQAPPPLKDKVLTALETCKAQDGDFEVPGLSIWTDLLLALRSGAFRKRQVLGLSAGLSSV
Sequence (Q14469 whole entry, the tested form may be a part): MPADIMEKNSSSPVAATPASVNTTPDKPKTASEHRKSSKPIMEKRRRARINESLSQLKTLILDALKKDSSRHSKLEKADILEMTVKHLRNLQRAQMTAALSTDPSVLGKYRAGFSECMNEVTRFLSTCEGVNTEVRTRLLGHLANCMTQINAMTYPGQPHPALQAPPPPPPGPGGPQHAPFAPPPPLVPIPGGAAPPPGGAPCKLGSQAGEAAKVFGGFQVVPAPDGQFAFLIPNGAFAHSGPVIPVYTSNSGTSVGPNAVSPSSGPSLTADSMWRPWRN
Assay: Inhibition of Cy3-GST-tagged human recombinant full length FANCF/Cy3-tagged human full length HES1 (1 to 280 amino acid residues) interaction expressed in Escherichia coli JM109 after 1 hrs by microplate reader assay
pIC50: −log10 of the molar value.
Listed here: items and their measured pIC50.

# Smiles notation, pIC50
records = [
    ("C[C@@H]1O[C@@H](OC[C@H]2O[C@@H](Oc3c(-c4ccc(O)c(O)c4)oc4cc(O)cc(O)c4c3=O)[C@H](O)[C@@H](O)[C@H]2O)[C@H](O)[C@H](O)[C@H]1O", 4.45),
    ("C[C@@H]1O[C@@H](OC[C@H]2O[C@@H](Oc3c(-c4ccc(O[C@@H]5O[C@@H](C)[C@H](O)[C@@H](O)[C@H]5O)c(O)c4)oc4cc(O)cc(O)c4c3=O)[C@H](O)[C@@H](O)[C@@H]2O)[C@H](O)[C@H](O)[C@H]1O", 4.63),
]
